# subject of test: glucagon receptor (Homo sapiens)
# Construct: expressed in transfected cells; host or cells: Chinese Hamster Ovary cells (CHO-HGR), membranes
# Sequence (P47871 26-477): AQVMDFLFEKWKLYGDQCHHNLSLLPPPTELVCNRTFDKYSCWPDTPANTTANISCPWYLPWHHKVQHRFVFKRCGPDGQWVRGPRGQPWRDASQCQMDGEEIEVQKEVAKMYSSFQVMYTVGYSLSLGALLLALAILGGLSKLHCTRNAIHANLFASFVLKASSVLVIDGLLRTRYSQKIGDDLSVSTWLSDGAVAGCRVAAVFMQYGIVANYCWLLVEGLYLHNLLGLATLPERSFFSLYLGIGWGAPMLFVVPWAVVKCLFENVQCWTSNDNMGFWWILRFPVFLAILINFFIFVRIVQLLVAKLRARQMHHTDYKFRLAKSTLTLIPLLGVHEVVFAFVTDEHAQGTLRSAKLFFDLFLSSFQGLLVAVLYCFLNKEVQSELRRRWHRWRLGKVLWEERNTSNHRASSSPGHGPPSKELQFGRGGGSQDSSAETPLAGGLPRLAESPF
# test: glucagon receptor binding assay (125I-glucagon, CHO-HGR membranes)
# protocol conditions: 125I-glucagon; 60 min at room temperature; read-out: IC50
# Description: The affinity for the glucagon receptor of compounds of the present invention is determined by the glucagon receptor binding assay. […] Following a wash step with ice-cold PBS/0.1% BSA, the filters were punched into test tubes, and the membrane bound radioactivity was determined.
pIC50: −log10 of the molar value.
Each entry gets false if its pIC50 stays under 6, and true if its pIC50 is 6 or above.

>>> answer_label("CCCCCc1c(C(C)C)nc(C(C)C)c(CO)c1-c1cccnc1")
"false"

Req: Tell me whether pIC50 is at least 6 here: CC(C)c1nc(C(C)C)c(CCCC2OCCO2)c(-c2ccc(F)cc2)c1CO
Resp: false

Req: Tell me whether pIC50 is at least 6 here: CCCCCc1c(C(C)C)nc(C(C)C)c(C(C)O)c1-c1ccccc1O (single isomer, unassigned) [Example 164-D2]
Resp: true

Req: Tell me whether pIC50 is at least 6 here: CCCCCc1c(C(C)C)cc(C(C)C)c(C(C)O)c1-c1ccc(F)cc1 (single isomer, unassigned; (+)) [Example 193]
Resp: true

Req: Tell me whether pIC50 is at least 6 here: COc1cccc(SCc2c(C(C)C)nc(C(C)C)c(CO)c2-c2ccc(F)cc2)c1
Resp: false

Req: Tell me whether pIC50 is at least 6 here: CCCCCc1c(C(C)C)nc(C(C)C)c(CO)c1-c1ccccc1O
Resp: true

Req: Tell me whether pIC50 is at least 6 here: CCCCCc1c(C=C(C)C)nc(C(C)C)c(CO)c1-c1ccc(F)cc1
Resp: false

Req: Tell me whether pIC50 is at least 6 here: CCCCCc1c(C(C)C)nc(C(C)C)c(CO)c1-c1ccccc1F
Resp: false

Req: Tell me whether pIC50 is at least 6 here: CCCCCc1c(C(C)C)nc(C(C)C)c(C(C)O)c1-c1ccccc1O (single isomer, unassigned) [Example 164-D1]
Resp: true

Req: Tell me whether pIC50 is at least 6 here: CC(C)c1nc(C(C)C)c(CO)c(-c2ccc(F)cc2)c1/C=C/c1ccccc1
Resp: true

# credit: patent US6218431A
